Ref: ChEMBL document CHEMBL3817846

measurement.notes: Acid dissociation constant, pKa of compound at 20 ug/ml at pH 5.6 to 6.8 by micro-scale spectrophotometric method
Type: physicochemical
measurement.label: pKa

INSERT INTO results (compound, number) VALUES
  ('COc1ccc(Oc2cc([N+](=O)[O-])ccc2NS(C)(=O)=O)cc1', 7.01),
  ('COc1cccc(Oc2cc([N+](=O)[O-])ccc2NS(C)(=O)=O)c1', 6.87),
  ('CS(=O)(=O)Nc1ccc([N+](=O)[O-])cc1Oc1ccc(I)cc1', 6.89),
  ('CS(=O)(=O)Nc1ccc([N+](=O)[O-])cc1Oc1ccccc1I', 6.57),
  ('COc1ccccc1Oc1cc([N+](=O)[O-])ccc1NS(C)(=O)=O', 7.07),
  ('CS(=O)(=O)Nc1ccc([N+](=O)[O-])cc1Oc1cccc(I)c1', 6.74),
  ('CS(=O)(=O)Nc1ccc([N+](=O)[O-])cc1Oc1ccccc1 [NIMESULIDE]', 6.57);

---

measurement.notes: Efflux ratio of permeability from basolateral to apical side over apical to basolateral side in human Caco2 cells at 1 uM after 1 to 2 hrs by LC-MS analysis
Format: ADME, cell-based
setup.conditions: Caco-2
measurement.label: efflux ratio at 1 µM

INSERT INTO assay_data (item_smiles, measurement_label, number) VALUES
  ('CS(=O)(=O)Nc1ccc([N+](=O)[O-])cc1Oc1cccc(I)c1', 'efflux ratio at 1 µM', 0.84),
  ('CS(=O)(=O)Nc1ccc([N+](=O)[O-])cc1Oc1ccc(I)cc1', 'efflux ratio at 1 µM', 0.45),
  ('CS(=O)(=O)Nc1ccc([N+](=O)[O-])cc1Oc1ccccc1I', 'efflux ratio at 1 µM', 0.72);

---

measurement.notes: Apparent permeability from apical to basolateral side in human Caco2 cells at 10 uM after 1 to 2 hrs by LC-MS analysis
Format: ADME, cell-based
setup.conditions: Caco-2
measurement.label: Papp A→B at 10 µM (×10⁻⁶ cm/s)

INSERT INTO assay_data (item_smiles, number) VALUES
  ('CS(=O)(=O)Nc1ccc([N+](=O)[O-])cc1Oc1ccc(I)cc1', 17.1),
  ('CS(=O)(=O)Nc1ccc([N+](=O)[O-])cc1Oc1cccc(I)c1', 27),
  ('CS(=O)(=O)Nc1ccc([N+](=O)[O-])cc1Oc1ccccc1I', 33.8);

---

study.system: Prostaglandin G/H synthase 1 (Ovis aries, UniProt P05979)
Sequence (P05979 whole entry): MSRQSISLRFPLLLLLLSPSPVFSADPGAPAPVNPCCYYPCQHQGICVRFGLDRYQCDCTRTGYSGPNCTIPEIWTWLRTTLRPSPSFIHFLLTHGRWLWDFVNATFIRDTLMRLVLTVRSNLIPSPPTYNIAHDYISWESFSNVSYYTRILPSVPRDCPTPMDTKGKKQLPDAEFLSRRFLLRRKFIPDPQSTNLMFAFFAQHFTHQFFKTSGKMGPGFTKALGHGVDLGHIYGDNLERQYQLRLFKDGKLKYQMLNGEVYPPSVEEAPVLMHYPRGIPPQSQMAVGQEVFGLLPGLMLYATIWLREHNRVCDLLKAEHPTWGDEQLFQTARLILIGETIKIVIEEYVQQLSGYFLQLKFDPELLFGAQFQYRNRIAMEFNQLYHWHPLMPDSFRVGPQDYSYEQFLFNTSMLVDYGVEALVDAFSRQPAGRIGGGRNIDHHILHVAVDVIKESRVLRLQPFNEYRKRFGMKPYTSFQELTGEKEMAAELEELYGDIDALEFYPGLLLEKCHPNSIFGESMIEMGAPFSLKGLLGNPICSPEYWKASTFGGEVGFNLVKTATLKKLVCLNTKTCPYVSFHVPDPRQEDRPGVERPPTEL
pIC50: −log10 of the molar value.
measurement.label: pIC50

INSERT INTO measurements (item_smiles, result) VALUES
  ('CS(=O)(=O)Nc1ccc([N+](=O)[O-])cc1Oc1ccccc1I', '< 4.00');

---

measurement.notes: Stability in Balb/cCrSlc mouse plasma assessed as parent compound remaining up to 120 mins by HPLC analysis
Assay type: ADME, cell-free
setup.conditions: read-out: Stability
Recorded measurements of remaining at 2 h, one per entry
measurement.label: remaining at 2 h

INSERT INTO measurements (compound, measurement_label, result) VALUES
  ('CS(=O)(=O)Nc1ccc([N+](=O)[O-])cc1Oc1ccccc1 [NIMESULIDE]', 'remaining at 2 h', '98%'),
  ('COc1ccccc1Oc1cc([N+](=O)[O-])ccc1NS(C)(=O)=O', 'remaining at 2 h', '97.6%'),
  ('CS(=O)(=O)Nc1ccc([N+](=O)[O-])cc1Oc1cccc(I)c1', 'remaining at 2 h', '98.4%'),
  ('CS(=O)(=O)Nc1ccc([N+](=O)[O-])cc1Oc1ccc(I)cc1', 'remaining at 2 h', '97.5%'),
  ('COc1cccc(Oc2cc([N+](=O)[O-])ccc2NS(C)(=O)=O)c1', 'remaining at 2 h', '99.3%'),
  ('CS(=O)(=O)Nc1ccc([N+](=O)[O-])cc1Oc1ccccc1I', 'remaining at 2 h', '95%'),
  ('COc1ccc(Oc2cc([N+](=O)[O-])ccc2NS(C)(=O)=O)cc1', 'remaining at 2 h', '98.5%');
